- MEASURED TARGET: A1 receptor (Rattus norvegicus, UniProt P25099)
- Construct: cerebral cortex of male Wistar rats (Charles River Japan, Inc) was extirpated; from tissue; host or cells: cerebral cortex of male Wistar rats, cell membrane preparation
- PROTOCOL NOTES: Adenosine A1 agonistic action ([35S]GTPγS binding, rat cerebral cortex cell membrane)
- Assay type: biochemical, male Wistar rats
- ASSAY CONDITIONS: test compound 10 nM; percentage to 100% of CPA 1 μM
For each of the compounds below, state its A1 Agonistic Action (%).
A number alone suffices; assume %.

IN: Recorded A1 Agonistic Action (%) of N#Cc1c(N)nc(SCc2csc(-c3ccc(Cl)cc3)n2)c(C#N)c1-c1ccc(OCCO)cc1 [Comparative Compound A, reference compound] , please.
OUT: 14

IN: Recorded A1 Agonistic Action (%) of CC(=O)Nc1ccc(-c2nc(SCc3cccc(CCC(=O)N4CCN(C)CC4)n3)nc(N)c2C#N)cc1 [Example 46] , please.
OUT: 4

IN: Recorded A1 Agonistic Action (%) of CC(=O)Nc1ccc(-c2nc(SCc3cccc(CCC(=O)N4CCN(CCN(C(C)C)C(C)C)CC4)n3)nc(N)c2C#N)cc1.Cl [Example 76] , please.
OUT: 0

----------
- Tested on: Intraocular Pressure in Rabbit
- PROTOCOL NOTES: Measuring test for intraocular pressure in rabbit
- Format: in vivo, Female New Zealand white rabbits
- ASSAY CONDITIONS: 0.03% ophthalmic solution, rabbit, instillation, 6 hr after instillation, difference from pre-instillation, mean±standard error
Entries whose ΔIOP (mmHg) is below -2 mmHg take Met; entries at or above -2 mmHg take Not met.

IN: Find out if reported ΔIOP (mmHg) for CC(=O)Nc1ccc(-c2nc(SCc3cccc(CCC(=O)NCCN(C)C)n3)nc(N)c2C#N)cc1.Cl is less than -2 mmHg
OUT: Not met

IN: Find out if reported ΔIOP (mmHg) for CC(=O)Nc1ccc(-c2nc(SCc3cccc(CCC(=O)N4CCCN(C)CC4)n3)nc(N)c2C#N)cc1.Cl is less than -2 mmHg
OUT: Not met

IN: Find out if reported ΔIOP (mmHg) for CC(=O)Nc1ccc(-c2nc(SCc3cccc(CCC(=O)N4CCN(CCN5CCOCC5)CC4)n3)nc(N)c2C#N)cc1.Cl is less than -2 mmHg
OUT: Met

IN: Find out if reported ΔIOP (mmHg) for CC(=O)Nc1ccc(-c2nc(SCc3cccc(CCC(=O)N(C)CCN(C)C)n3)nc(N)c2C#N)cc1.Cl is less than -2 mmHg
OUT: Not met

IN: Find out if reported ΔIOP (mmHg) for CC(=O)Nc1ccc(-c2nc(SCc3cccc(CCC(=O)N(C)CC(C)N(C)C)n3)nc(N)c2C#N)cc1.Cl (stereo not shown) is less than -2 mmHg
OUT: Not met

IN: Find out if reported ΔIOP (mmHg) for CCN(CC)CCN1CCN(C(=O)CCc2cccc(CSc3nc(N)c(C#N)c(-c4ccc(NC(C)=O)cc4)n3)n2)CC1.Cl is less than -2 mmHg
OUT: Met

IN: Find out if reported ΔIOP (mmHg) for CCN1CCN(CC2CN(C(=O)CCc3cccc(CSc4nc(N)c(C#N)c(-c5ccc(NC(C)=O)cc5)n4)n3)CCO2)CC1.Cl (stereo not shown) is less than -2 mmHg
OUT: Not met

IN: Find out if reported ΔIOP (mmHg) for CC(=O)Nc1ccc(-c2nc(SCc3cccc(CCC(=O)N4CCN(CCN5CCCC5)CC4)n3)nc(N)c2C#N)cc1.Cl is less than -2 mmHg
OUT: Met

IN: Find out if reported ΔIOP (mmHg) for CCN(CC)CCNC(=O)CCc1cccc(CSc2nc(N)c(C#N)c(-c3ccc(NC(C)=O)cc3)n2)n1.Cl is less than -2 mmHg
OUT: Not met

----------
For each of the molecules below, state its EC50.
- MEASURED TARGET: adenosine A2a receptor (Human) (Homo sapiens)
- Sequence (P29274 whole entry): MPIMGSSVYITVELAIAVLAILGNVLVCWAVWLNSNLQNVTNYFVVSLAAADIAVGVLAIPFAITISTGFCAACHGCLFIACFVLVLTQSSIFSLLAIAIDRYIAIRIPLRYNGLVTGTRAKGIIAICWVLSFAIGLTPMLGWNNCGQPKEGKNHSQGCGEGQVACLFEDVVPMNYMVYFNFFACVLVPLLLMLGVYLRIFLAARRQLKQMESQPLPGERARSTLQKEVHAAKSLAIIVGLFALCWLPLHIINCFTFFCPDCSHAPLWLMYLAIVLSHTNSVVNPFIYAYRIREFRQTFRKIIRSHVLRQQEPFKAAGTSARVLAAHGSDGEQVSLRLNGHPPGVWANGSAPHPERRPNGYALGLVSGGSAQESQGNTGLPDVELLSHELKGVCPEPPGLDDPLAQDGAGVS
- PROTOCOL NOTES: c-AMP generating action in cell expressing adenosine A2a receptor
- ASSAY CONDITIONS: HEK293 cell expressing human A2a; 100% = c-AMP caused by 1 μM CGS-21680; read-out: A2a Agonistic Action (EC50)
Structures can show the parent of a compound that is named as a salt.

IN: Recorded EC50 of CCN1CCN(CC2CN(C(=O)CCc3cccc(CSc4nc(N)c(C#N)c(-c5ccc(NC(C)=O)cc5)n4)n3)CCO2)CC1.Cl (stereo not drawn) [Example 72, hydrochloride] , please.
OUT: 13.6 nM

IN: Recorded EC50 of CC(=O)Nc1ccc(-c2nc(SCc3cccc(CN4CCN(C(=O)CN5CCN(C)CC5)CC4)n3)nc(N)c2C#N)cc1 [Example 21, hydrochloride] , please.
OUT: 10.6 nM

IN: Recorded EC50 of N#Cc1c(N)nc(SCc2csc(-c3ccc(Cl)cc3)n2)c(C#N)c1-c1ccc(OCCO)cc1 [Comparative Compound A, reference compound] , please.
OUT: > 1000 nM

----------
- MEASURED TARGET: A1 receptor (Rattus norvegicus)
- Construct: cerebral cortex of male Wistar rats (Charles River Japan, Inc) was extirpated; from tissue; host or cells: cerebral cortex of male Wistar rats, cell membrane preparation
- Sequence (P25099 1-326): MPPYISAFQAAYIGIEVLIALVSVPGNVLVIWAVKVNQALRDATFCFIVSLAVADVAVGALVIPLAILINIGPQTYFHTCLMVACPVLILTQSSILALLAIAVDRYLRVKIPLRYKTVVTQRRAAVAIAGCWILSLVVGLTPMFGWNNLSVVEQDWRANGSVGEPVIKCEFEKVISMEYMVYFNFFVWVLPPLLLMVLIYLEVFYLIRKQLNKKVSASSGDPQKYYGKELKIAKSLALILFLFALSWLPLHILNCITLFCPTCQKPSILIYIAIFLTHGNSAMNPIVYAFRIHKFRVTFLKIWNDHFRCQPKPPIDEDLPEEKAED
- PROTOCOL NOTES: Adenosine A1 agonistic action ([35S]GTPγS binding, rat cerebral cortex cell membrane)
- Type: biochemical, male Wistar rats
- ASSAY CONDITIONS: test compound 10 nM; percentage to 100% of CPA 1 μM
- Method: (2) Adenosine A1 Agonistic Action […] The above liquid preparation of cell membrane in an amount corresponding to 10 μg of cell membrane was added to Tris-buffer comprising 5 mM of MgCl2, 1 mM of EDTA, 1 mM of dithiothreitol, 100 mM of NaCl, 0.01 mM of GDP (guanosine diphosphate), 5 mg/mL of BSA and 2 units/mL of ADA and the mixture was incubated at 25° C. for 30 minutes. […] The radioactivity of the filter was measured with Top count NXT(Perkin Elmer Life Sciences). […]
For each of the compounds below, state its A1 Agonistic Action (%).
A number alone suffices; assume %.

IN: State its A1 Agonistic Action (%) on A1 receptor (Rattus norvegicus): CC(=O)Nc1ccc(-c2nc(SCc3cccc(CCC(=O)N4CCN(CCN5CCCC5)CC4)n3)nc(N)c2C#N)cc1.Cl [Example 77]
OUT: 2

IN: State its A1 Agonistic Action (%) on A1 receptor (Rattus norvegicus): CCN(CC)CCN1CCN(C(=O)CCc2cccc(CSc3nc(N)c(C#N)c(-c4ccc(NC(C)=O)cc4)n3)n2)CC1.Cl [Example 75]
OUT: 3

IN: State its A1 Agonistic Action (%) on A1 receptor (Rattus norvegicus): CC(=O)Nc1ccc(-c2nc(SCc3cccc(CCC(=O)N(C)CCN(C)C)n3)nc(N)c2C#N)cc1.Cl [Example 62]
OUT: 8

IN: State its A1 Agonistic Action (%) on A1 receptor (Rattus norvegicus): CC(=O)Nc1ccc(-c2c(C#N)c(N)nc(SCc3ccccn3)c2C#N)cc1 [Comparative Compound B, reference compound]
OUT: 20

----------
For each of the compounds below, state its EC50.
- MEASURED TARGET: adenosine A2a receptor (Human) (Homo sapiens)
- PROTOCOL NOTES: c-AMP generating action in cell expressing adenosine A2a receptor
- ASSAY CONDITIONS: HEK293 cell expressing human A2a; 100% = c-AMP caused by 1 μM CGS-21680; read-out: A2a Agonistic Action (EC50)
Where a name gives a salt, the structure may show the parent alone.

IN: Recorded EC50 of CC(=O)Nc1ccc(-c2nc(SCc3cccc(CCC(=O)N(C)C4CCN(C)CC4)n3)nc(N)c2C#N)cc1.Cl [Example 67, hydrochloride] , please.
OUT: 6.8 nM

IN: Recorded EC50 of CC(=O)Nc1ccc(-c2nc(SCc3cccc(CCC(=O)N(C)CC(C)N(C)C)n3)nc(N)c2C#N)cc1.Cl (stereo not shown) [Example 64, hydrochloride] , please.
OUT: 4.3 nM

IN: Recorded EC50 of CCN(CC)C1CCN(C(=O)CCc2cccc(CSc3nc(N)c(C#N)c(-c4ccc(NC(C)=O)cc4)n3)n2)CC1 [Example 68, hydrochloride salt] , please.
OUT: 7.5 nM

IN: Recorded EC50 of CC(=O)Nc1ccc(-c2nc(SCc3cccc(CCC(=O)N4CCN(CCN5CCCC5)CC4)n3)nc(N)c2C#N)cc1.Cl [Example 77, hydrochloride] , please.
OUT: 9.5 nM

IN: Recorded EC50 of CCC(=O)Nc1ccc(-c2nc(SCc3cccc(C)n3)nc(N)c2C#N)cc1 , please.
OUT: 9 nM

IN: Recorded EC50 of CCCC(=O)Nc1ccc(-c2nc(SCc3cccc(CCC(=O)N4CCN(C)CC4)n3)nc(N)c2C#N)cc1 , please.
OUT: 38 nM

IN: Recorded EC50 of CN1CCN(C(=O)CCc2cccc(CSc3nc(N)c(C#N)c(-c4ccc(N)cc4)n3)n2)CC1 , please.
OUT: 5.1 nM

IN: Recorded EC50 of CCN(CC)CCN1CCN(C(=O)CCc2cccc(CSc3nc(N)c(C#N)c(-c4ccc(NC(C)=O)cc4)n3)n2)CC1.Cl [Example 79, hydrochloride] , please.
OUT: 8.4 nM

IN: Recorded EC50 of CC(=O)Nc1ccc(-c2nc(SCc3cccc(C(=O)N4CCOCC4)n3)nc(N)c2C#N)cc1 [Example 26, hydrochloride salt] , please.
OUT: 30.7 nM

IN: Recorded EC50 of CC(=O)Nc1ccc(-c2nc(SCc3cccc(CNC(=O)CCCN4CCCC4)n3)nc(N)c2C#N)cc1 , please.
OUT: 48 nM

IN: Recorded EC50 of CC(=O)Nc1ccc(-c2nc(SCc3cccc(CCC(=O)N4CCN(C)CC4)n3)nc(N)c2C#N)cc1 , please.
OUT: 7.4 nM

IN: Recorded EC50 of CC(=O)Nc1ccc(-c2nc(SCc3cccc(CCC(=O)N4CCCCC4CO)n3)nc(N)c2C#N)cc1 (stereo not shown) [Example 70, hydrochloride] , please.
OUT: 8.8 nM

IN: Recorded EC50 of CC(=O)Nc1ccc(-c2nc(SCc3cccc(CCC(=O)N4CCC(N5CCCCC5)CC4)n3)nc(N)c2C#N)cc1.Cl [Example 69, hydrochloride] , please.
OUT: 7 nM
